assay: activity coefficient (dimensionless); of the first substance listed, at infinite dilution; xn = mol fraction of the nth substance listed; conditions: 313.15 K; 101 kPa; Liquid; Chromatography; x1 = 0
MEASUREMENT_KIND: activity coefficient

COMPOUND: CCCCCCCCC [nonane] + CCCCn1cc[n+](C)c1.O=[N+]([O-])[O-]
MEASUREMENT_KIND: activity coefficient
RECORDED_VALUE: 238
//
COMPOUND: CCc1ccccc1 [ethylbenzene] + CCCCn1cc[n+](C)c1.O=[N+]([O-])[O-]
MEASUREMENT_KIND: activity coefficient
RECORDED_VALUE: 5.55

Field activity coefficient (entry CC(C)=O [acetone] + CCCCn1cc[n+](C)c1.O=[N+]([O-])[O-] ) reads 1.12

Field activity coefficient (entry CC1CCCCC1 [methylcyclohexane] + CCCCn1cc[n+](C)c1.O=[N+]([O-])[O-] ) reads 42.1

Field activity coefficient (entry CO [methanol] + CCCCn1cc[n+](C)c1.O=[N+]([O-])[O-] ) reads 0.318

Field activity coefficient (entry Cc1ccc(C)cc1 [1,4-dimethylbenzene] + CCCCn1cc[n+](C)c1.O=[N+]([O-])[O-] ) reads 5.17

Field activity coefficient (entry CCOC(C)=O [ethyl acetate] + CCCCn1cc[n+](C)c1.O=[N+]([O-])[O-] ) reads 2.98

Field activity coefficient (entry Cc1cccc(C)c1 [1,3-dimethylbenzene] + CCCCn1cc[n+](C)c1.O=[N+]([O-])[O-] ) reads 5.47

---

assay: activity coefficient (dimensionless); of the first substance listed, at infinite dilution; xn = mol fraction of the nth substance listed; conditions: 333.15 K; 101 kPa; Liquid; Chromatography; x1 = 0
MEASUREMENT_KIND: activity coefficient
# output: bare number, no unit

Answered cases to consult:
COMPOUND: ClC(Cl)(Cl)Cl [tetrachloromethane] + CCCCn1cc[n+](C)c1.O=[N+]([O-])[O-]
activity coefficient: 2.52
--
COMPOUND: CCc1ccccc1 [ethylbenzene] + CCCCn1cc[n+](C)c1.O=[N+]([O-])[O-]
activity coefficient: 5.56

Field activity coefficient (entry CO [methanol] + CCCCn1cc[n+](C)c1.O=[N+]([O-])[O-] ) reads 0.31

---

experiment: activity coefficient (dimensionless); of the first substance listed, at infinite dilution; xn = mol fraction of the nth substance listed; conditions: 303.15 K; 101 kPa; Liquid; Chromatography; x1 = 0
MEASUREMENT_KIND: activity coefficient

MOLECULE: CCO [ethanol] + CCCCn1cc[n+](C)c1.O=[N+]([O-])[O-]
MEASUREMENT_KIND: activity coefficient
RECORDED_VALUE: 0.564

Field activity coefficient (entry Cc1cccc(C)c1 [1,3-dimethylbenzene] + CCCCn1cc[n+](C)c1.O=[N+]([O-])[O-] ) reads 5.42

Field activity coefficient (entry CCCCCC [hexane] + CCCCn1cc[n+](C)c1.O=[N+]([O-])[O-] ) reads 63.9

Field activity coefficient (entry CCOC(C)=O [ethyl acetate] + CCCCn1cc[n+](C)c1.O=[N+]([O-])[O-] ) reads 2.93

---

experiment: activity coefficient (dimensionless); of the first substance listed, at infinite dilution; xn = mol fraction of the nth substance listed; conditions: 313.15 K; 101 kPa; Liquid; Chromatography; x1 = 0
Could you please mark Condition met for values of activity coefficient below 2 and Condition not met for values at or above it?

COMPOUND: CCCCCCCC [octane] + CCCCn1cc[n+](C)c1.O=[N+]([O-])[O-]
ASSIGNED_LABEL: Condition not met
//
COMPOUND: c1ccccc1 [benzene] + CCCCn1cc[n+](C)c1.O=[N+]([O-])[O-]
ASSIGNED_LABEL: Condition met
//
COMPOUND: C1CCCCC1 [cyclohexane] + CCCCn1cc[n+](C)c1.O=[N+]([O-])[O-]
ASSIGNED_LABEL: Condition not met
//
COMPOUND: ClCCl [dichloromethane] + CCCCn1cc[n+](C)c1.O=[N+]([O-])[O-]
ASSIGNED_LABEL: Condition met
//
COMPOUND: CCCO [propan-1-ol] + CCCCn1cc[n+](C)c1.O=[N+]([O-])[O-]
ASSIGNED_LABEL: Condition met
//
COMPOUND: Cc1ccccc1C [1,2-dimethylbenzene] + CCCCn1cc[n+](C)c1.O=[N+]([O-])[O-]
ASSIGNED_LABEL: Condition not met
//
COMPOUND: Cc1ccccc1 [toluene] + CCCCn1cc[n+](C)c1.O=[N+]([O-])[O-]
ASSIGNED_LABEL: Condition not met
//
COMPOUND: ClC(Cl)(Cl)Cl [tetrachloromethane] + CCCCn1cc[n+](C)c1.O=[N+]([O-])[O-]
ASSIGNED_LABEL: Condition not met

Lab log: compare recorded activity coefficient with 2; is it strictly lower for ClC(Cl)Cl [trichloromethane] + CCCCn1cc[n+](C)c1.O=[N+]([O-])[O-] ?
Condition met

Lab log: compare recorded activity coefficient with 2; is it strictly lower for CCCCCC [hexane] + CCCCn1cc[n+](C)c1.O=[N+]([O-])[O-] ?
Condition not met
